- assay comment: reversal of MRP1-mediated doxorubicin resistance, pilot screen, H69AR cells, doxorubicin co-treatment (AID 601)
- condition label: H69AR cells + 2 uM doxorubicin, CellTiter-Glo, 72 h; measured here: viability with 2 uM doxorubicin; at 10 µM; stronger effect = lower value
quantity name: viability
State the result as a value with its unit after it.

Here are 4 compounds together with their reported answers.
CCc1cc(C)cc(OCCNC(=O)c2ncn[nH]2)c1	81.1%
c1ccc(CNc2c3c(nc4ncnn24)CCCC3)nc1	89.5%
O=C(Oc1ccc(Cl)cc1N1C(=O)CCC1=O)c1ccco1	87.3%
COc1ccc(CCNC(=O)c2cc(-c3cc(C)c(C)cc3O)n[nH]2)cc1OC	75.5%

// query Fill blank: measured viability of the compound `O=C(c1cccnc1NCc1ccccc1)N1CCOCC1` is ____.
// result 93%

// query Fill blank: measured viability of the compound `C(=N\n1cnnc1)/c1cccnc1` is ____.
// result 88.8%

// query Fill blank: measured viability of the compound `COc1cccc(NC(=O)N[C@@H](Cc2ccccc2)C(=O)O)c1` is ____.
// result 94.5%

// query Fill blank: measured viability of the compound `c1ccc(Cc2nnc3n2CCCCC3)cc1` is ____.
// result 97.7%

// query Fill blank: measured viability of the compound `O=C(Nc1cccc(O)c1)c1ccccc1` is ____.
// result 103%

// query Fill blank: measured viability of the compound `COc1ccc2nc3oc(C(=O)NC4CCN(Cc5ccccc5)CC4)cc3cc2c1` is ____.
// result 80.9%

// query Fill blank: measured viability of the compound `CCc1c(C(=O)N2CCOCC2)csc1C` is ____.
// result 84.9%

// query Fill blank: measured viability of the compound `CCc1nccn1S(=O)(=O)c1ccc(C)c(C)c1` is ____.
// result 86.9%

// query Fill blank: measured viability of the compound `CCN1C(=O)/C(=C2\C=Cc3ccccc3N2CC)OC1=S` is ____.
// result 64.7%

// query Fill blank: measured viability of the compound `Cc1cccc(-c2noc(CCC(=O)Nc3ccccc3)n2)c1` is ____.
// result 84.9%

====

- assay comment: reversal of MRP1-mediated doxorubicin resistance, pilot screen, H69AR cells, doxorubicin co-treatment (AID 601)
- condition label: H69AR cells, CellTiter-Glo, 72 h; compound alone cytotoxicity; at 10 µM
Under this convention, y denotes viability strictly below 90% and n denotes viability at or above 90%.

Check out these entries, answers already filled in.
COc1ccccc1-c1nnc(SCc2ccccn2)n1C	y
Cc1nc(C)c(C(=O)C2=C(O)C(=O)N(CCN3CCOCC3)C2c2cccnc2)s1 (stereo unspecified)	n
CN(C)S(=O)(=O)c1ccc(C(=O)N2CCC(c3nc4ccccc4o3)CC2)cc1	y

// query I wonder whether `COC(=O)Nc1ccccc1C(=O)N1CCCCC1` has viability below 90%. Can you tell?
// result n

// query I wonder whether `Cc1cc(C)n2nc3nc(N4CCCCC4)nc(-c4ccco4)c3c2n1` has viability below 90%. Can you tell?
// result y

====

Each entry below carries its reported viability.
- assay comment: growth inhibitors of H69AR lung tumor, primary screen, human, duplicate replicates (AID 580);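 note: 100% = mean luminescence of untreated wells and 0% = no signal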
- condition label: H69AR lung tumor cells viability, ATP luminescence, 72 h; at 10 µM; stronger effect = lower value
Please give a number only; it is taken to be in %.

Here are 4 compounds together with their reported answers.
O=C(CN1C(=O)CSC1=O)N1CCc2ccccc2C1	89.6
COc1ccccc1Cn1nnc2c(=O)[nH]c(C3CCN(C(=O)c4ccccc4Cl)CC3)nc21	82.2
COc1cc2c(=O)n(Cc3ccccc3)c(=O)n(CC(=O)NCc3ccco3)c2cc1OC	86.2
CC(C)(C)c1cc(CCC(=O)N2CCNCC2)c(C(C)(C)C)cc1O	98.3

// query Fill blank: measured viability of the compound CCC(C(=O)OCC(=O)Nc1c(C)n(C)n(-c2ccccc2)c1=O)c1ccccc1 (stereo not given) is ____.
// result 87.7

// query Fill blank: measured viability of the compound `O=C(Cn1nc(C(F)(F)F)c2c1CCCC2)NCCN1CCOCC1` is ____.
// result 91.5

// query Fill blank: measured viability of the compound Cc1cccc(N2C(=O)CC(Sc3nc(C)c4c(n3)CCCC4)C2=O)c1 (stereo not given) is ____.
// result 90.3

// query Fill blank: measured viability of the compound O=C1CC(c2ccc(Cl)cc2)n2nc(N3C(=O)c4ccccc4C3=O)nc2N1 (stereo not given) is ____.
// result 91.8

// query Fill blank: measured viability of the compound `CCc1nc2c(cnn2-c2ccc(Cl)cc2)c(=O)n1-c1ccc2c(c1)OCCO2` is ____.
// result 83.6

// query Fill blank: measured viability of the compound `CC(C)CCNC(=O)NC(=O)COc1ccccc1C#N` is ____.
// result 97.1

// query Fill blank: measured viability of the compound `COc1ccccc1N(CC(=O)NCc1ccccc1)S(C)(=O)=O` is ____.
// result 97

// query Fill blank: measured viability of the compound Cc1cc(NC(=O)CCC(=O)N(CCc2ccccc2)C(C(=O)NC2CCCC2)c2ccco2)no1 (stereo not given) is ____.
// result 99.2
